meta.source: patent US20170008888A1

# Tested on: AMPKa1 or AMPKa2
# assay-protocol: Probe-based (AX9989) kinase profiling in Jurkat lysate: AMPKa1 or AMPKa2
# Type: binding
# test-conditions: screening concentration 1 μM
readout-label: AMPKa1 or AMPKa2 Inhibition % at indicated screening concentration

Worked examples follow.
>>> result("CCOc1cc(C(=O)N[C@H]2CC[C@@H](O)CC2)ccc1Nc1cc2c(cn1)N(C)C(=O)c1ccccc1N2C")
"E (E is ≦35%)"
>>> result("CCOc1cc(C(=O)N2CCN(C(C)=O)CC2)ccc1Nc1cc2c(cn1)N(C)C(=O)c1ccccc1N2C1CC1")
"E (E is ≦35%)"
>>> result("CC(C)Oc1cc(C(=O)N2CCN(C3CCN(C)CC3)CC2)ccc1Nc1cc2c(cn1)N(C)C(=O)c1ccccc1N2C")
"E (E is ≦35%)"
>>> result("CCOc1cc(C(=O)N2CC[C@H](C#N)C2)ccc1Nc1cc2c(cn1)N(C)C(=O)c1ccccc1N2C")
"E (E is ≦35%)"

Quick request: AMPKa1 or AMPKa2 Inhibition % at indicated screening concentration for each listed item, please.
1. CN1C(=O)c2ccccc2N(C)c2cc(Nc3ccc(C(=O)N4CCN(S(C)(=O)=O)CC4)cc3F)ncc21
2. CCOc1cc(C(=O)N[C@H]2CC[C@H](C#N)CC2)ccc1Nc1cc2c(cn1)N(C)C(=O)c1ccccc1N2C
3. CC(=O)N1CCN(C(=O)c2ccc(Nc3cc4c(cn3)N(C)C(=O)c3ccccc3N4C)c(F)c2)CC1

["E (E is ≦35%)", "E (E is ≦35%)", "E (E is ≦35%)"]
